Kindly state melting point for each of the entries shown.

COC(=O)c1cc(NC(=N)N)c(NC(C)=O)c(Br)c1O
238 to 240 °C

# batch size: 6; output melting point per entry
1. CC(=O)Nc1cc(O)c(C(=O)O)cc1NC(=N)N
2. CCCC(=O)Nc1cc(O)c(C(=O)OCC)cc1N
3. CC(=O)Nc1cc(O)c(C(=O)O)cc1N
4. COC(=O)c1cc(N)c(NC(C)=O)cc1O
5. CC(=O)Nc1c(N)cc(C(=O)O)c(O)c1Br
6. COC(=O)c1cc(NC(=N)N)c(NC(C)=O)cc1O

Response:
334 to 357 °C
135 to 137 °C
295 to 297 °C
204 to 206 °C
210 to 211 °C
233 to 234 °C

Entry COC(=O)c1cc(N)c(NC(C)=O)c(Br)c1O ; melting point = 217 to 219 °C
